tested-system: DNA repair protein RAD51 homolog 1 (Homo sapiens, UniProt Q06609)
Sequence (Q06609 whole entry): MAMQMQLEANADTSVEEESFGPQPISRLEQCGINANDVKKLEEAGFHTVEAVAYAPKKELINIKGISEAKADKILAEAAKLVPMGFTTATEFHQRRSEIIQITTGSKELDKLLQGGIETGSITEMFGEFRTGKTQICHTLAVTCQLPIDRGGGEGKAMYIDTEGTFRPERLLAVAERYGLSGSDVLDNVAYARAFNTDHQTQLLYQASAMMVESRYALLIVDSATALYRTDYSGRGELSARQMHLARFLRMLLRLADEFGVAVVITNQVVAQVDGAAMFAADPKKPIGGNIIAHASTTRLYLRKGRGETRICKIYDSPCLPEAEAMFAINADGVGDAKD
experimental-protocol: Inhibition of Escherichia coli BL21(DE3) expressing human N-terminal 6-histidine/Avi-tagged RAD51 binding to 5'-Alexa488-oligo-dT45 ssDNA preincubated for 40 mins followed by substrate addition measured after 40 mins by fluorescence polarization based microplate method
pIC50: −log10 of the molar value.
experimental-endpoint: pIC50

Check out these entries, answers already filled in.
[
  {
    "molecule": "O=[N+]([O-])c1ccc(-c2nc3ccccc3n3cccc23)cc1",
    "val": "< 4.00"
  },
  {
    "molecule": "c1ccc2c(c1)nc(-c1ccncc1)c1cccn12",
    "val": "< 4.00"
  },
  {
    "molecule": "O=[N+]([O-])c1cccc(-c2nc3ccccc3n3cccc23)c1",
    "val": "< 4.00"
  },
  {
    "molecule": "c1ccc2c(c1)nc(-c1ccc(N3CCOCC3)cc1)c1cccn12",
    "val": "< 4.00"
  },
  {
    "molecule": "Oc1ccc(-c2nc3ccccc3n3cccc23)cc1",
    "val": "< 4.00"
  },
  {
    "molecule": "COc1ccc2c(c1)nc(-c1cccnc1)c1cccn12",
    "val": "< 4.00"
  }
]

Here is the next item to consider.
What value of pIC50 on DNA repair protein RAD51 homolog 1 (Homo sapiens, UniProt Q06609) does `Nc1cccc(-c2nc3ccccc3n3cccc23)c1` have?
< 4.00
